# targetEntity: Human recombinant MMP-14 (Homo sapiens, UniProt P50281)
# Construct: The catalytic domain enzyme was expressed in E. coli inclusion bodies, solubilized in urea; made in house
# experiment: In vitro MMP inhibition, IC50 determination (fluorogenic substrate I)
# Format: biochemical
# testConditions: value outside parentheses (Ki in parenthesis)
Field: IC50. Provide a value for each of the molecules that follow.
Answers are plain numbers, in µM.

In the examples that follow, each entry is paired with its recorded IC50.
COc1ccc(CC(=O)CCCOc2ccc(S(=O)(=O)C3(C(=O)NO)CCOCC3)cc2)cc1 : 0.32
O=C(NO)C1(S(=O)(=O)c2ccc(NCCCCc3ccccc3)cc2)CCOCC1 : 6.5

Batch: IC50 for all items listed.
1. O=C(CCCOc1ccc(S(=O)(=O)C2(C(=O)NO)CCOCC2)cc1)c1cccs1
2. C/C(=C\c1ccccc1)COc1ccc(S(=O)(=O)C2(C(=O)NO)CCOCC2)cc1

6.56
2

###

# targetEntity: Human recombinant MMP-14 (Homo sapiens)
# Construct: The catalytic domain enzyme was expressed in E. coli inclusion bodies, solubilized in urea; made in house
# experiment: In vitro MMP inhibition, IC50 determination (fluorogenic substrate I)
# Format: biochemical
# testConditions: value outside parentheses (Ki in parenthesis)
reportedEndpoint: IC50 (µM)
Give bare numbers, in µM.

O=C(NO)C1(S(=O)(=O)c2ccc(OCCSc3nc4ccccc4s3)cc2)CCOCC1 [Example 341] : 6.4

Here is the next item to consider.
Consider the compound O=C(CCCCOc1ccc(S(=O)(=O)C2(C(=O)NO)CCOCC2)cc1)c1cccs1 [Example 324] and give its recorded IC50.
8

###

# targetEntity: Human recombinant MMP-9 (Homo sapiens)
# Construct: made in house; host or cells: MMP-9-transfected HT1080 cells (spent media)
# Sequence (P14780 107-707 limits assumed): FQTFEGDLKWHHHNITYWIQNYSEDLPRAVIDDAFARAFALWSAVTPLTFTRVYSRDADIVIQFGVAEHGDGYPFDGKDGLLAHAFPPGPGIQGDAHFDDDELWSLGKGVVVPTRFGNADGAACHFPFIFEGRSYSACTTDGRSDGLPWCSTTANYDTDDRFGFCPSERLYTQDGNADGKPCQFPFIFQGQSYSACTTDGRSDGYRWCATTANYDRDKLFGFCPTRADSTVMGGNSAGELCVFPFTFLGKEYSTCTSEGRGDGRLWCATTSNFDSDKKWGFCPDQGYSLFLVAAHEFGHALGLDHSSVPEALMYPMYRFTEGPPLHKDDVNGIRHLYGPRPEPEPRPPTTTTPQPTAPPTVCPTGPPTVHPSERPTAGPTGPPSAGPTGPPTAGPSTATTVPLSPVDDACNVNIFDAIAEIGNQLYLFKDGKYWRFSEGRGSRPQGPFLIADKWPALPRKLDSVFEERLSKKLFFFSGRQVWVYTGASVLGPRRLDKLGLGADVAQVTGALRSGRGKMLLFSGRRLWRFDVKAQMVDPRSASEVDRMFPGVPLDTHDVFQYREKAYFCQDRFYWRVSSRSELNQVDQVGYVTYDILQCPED
# experiment: In vitro MMP inhibition, Ki determination (fluorogenic substrate II)
# Type: biochemical
# testConditions: value in parenthesis
Field: Ki. Provide a value for each of the molecules that follow.
Give bare numbers, in µM.

O=C(NO)C1(S(=O)(=O)c2ccc(OCCCc3cccc(-c4ccco4)c3)cc2)CCOCC1 [Example 97] : 0.473
Cc1ccccc1-c1cccc(CCCOc2ccc(S(=O)(=O)C3(C(=O)NO)CCOCC3)cc2)c1 [Example 164] : 2.72
Cc1ccc(-c2cccc(CCOc3ccc(S(=O)(=O)C4(C(=O)NO)CCOCC4)cc3)c2)cc1C [Example 117] : 9.91

Here is the next item to consider.
Consider the molecule CN(C(=O)CCCOc1ccc(S(=O)(=O)C2(C(=O)NO)CCOCC2)cc1)c1ccc(OC(F)(F)F)cc1 [Example 249] and give its recorded Ki.
1.49

###

Field: IC50. Provide a value for each of the molecules that follow.
# targetEntity: Human recombinant MMP-13 (Homo sapiens)
# Construct: made in house; host or cells: baculovirus / insect cells
# experiment: In vitro MMP inhibition, IC50 determination (fluorogenic substrate I)
# Assay type: biochemical
# testConditions: value outside parenthesis
One number for each entry, in nM.

O=C(NO)C1(S(=O)(=O)c2ccc(OCCCc3nc(-c4ccccc4)no3)cc2)CCOCC1 [Example 241] : 1.3
O=C(CCCOc1ccc(S(=O)(=O)C2(C(=O)NO)CCOCC2)cc1)Nc1ccc(OC(F)(F)F)cc1 [Example 250] : 0.3
O=C(NO)C1(S(=O)(=O)c2ccc(OCCCc3nc(-c4ccc(F)cc4)no3)cc2)CCOCC1 [Example 240] : 0.7

Here is the next item to consider.
Enter measured IC50, system Human recombinant MMP-13 (Homo sapiens), for the molecule shown: Cc1cc(OC(F)(F)F)ccc1NC(=O)CCCOc1ccc(S(=O)(=O)C2(C(=O)NO)CCOCC2)cc1 [Example 229]
1.7

Data provenance is patent US20040024024A1.
